Tested on: Staphylococcus aureus
Test: agar serial dilution test, minimum inhibitory concentration
Type: cell-based
Conditions: Staphylococcus aureus, ST AU strain 53-180
QUANTITY_MEASURED: MIC
Value and unit, in that order.

Record CC(=O)OCC1=C(C(=O)O)N2C(=O)[C@@H](NC(=O)CSC(SCC#N)=C(C#N)c3ccccc3)[C@H]2SC1 [Example 8] : what is its MIC with Staphylococcus aureus?
0.976 µg/mL

Which measured MIC belongs to C=CCSC(=NC#N)SCC(=O)N[C@@H]1C(=O)N2C(C(=O)O)=C(COC(C)=O)CS[C@H]12 [Example 19] , tested on Staphylococcus aureus?
3.9 µg/mL

Query the reported MIC for Staphylococcus aureus; item: CCOC(=O)CSC(SCC(=O)N[C@@H]1C(=O)N2C(C(=O)O)=C(COC(C)=O)CS[C@H]12)=C(C#N)C(N)=O [Example 4]
1.95 µg/mL

Record CC(=O)OCC1=C(C(=O)O)N2C(=O)[C@@H](NC(=O)CSC(=NC#N)SCc3ccc(Cl)cc3)[C@H]2SC1 [Example 18] : what is its MIC with Staphylococcus aureus?
3.9 µg/mL

Query for Staphylococcus aureus: what MIC does the record show for CC(=O)OCC1=C(C(=O)O)N2C(=O)[C@@H](NC(=O)CSC(=C[N+](=O)[O-])SCC#N)[C@H]2SC1 [Example 6] ?
3.9 µg/mL

What value of MIC on Staphylococcus aureus does CCOC(=O)CSC(SCC(=O)N[C@@H]1C(=O)N2C(C(=O)O)=C(COC(C)=O)CS[C@H]12)=C(C#N)C#N [Example 1] have?
3.9 µg/mL

Form: Entry = CC(=O)OCC1=C(C(=O)O)N2C(=O)[C@@H](NC(=O)CSC(=NC#N)SCc3ccc([N+](=O)[O-])cc3)[C@H]2SC1 [Example 13] | System = Staphylococcus aureus | MIC = ____
3.9 µg/mL
